Form: system (Kappa-type opioid receptor (Homo sapiens)), quantity (Ki), values below.

molecule	Ki
CN1CC[C@]23c4c5ccc(OC(=O)CCCCCCCCC(=O)Oc6ccc7c(c6)[C@@]68CCCCC6[C@@H](C7)N(CC6CCC6)CC8)c4O[C@H]2[C@@H](O)C=C[C@H]3[C@H]1C5 (stereo partly specified)	0.11 nM
O=C(CCCCCCCCC(=O)Nc1ccc2c(c1)[C@@]13CCCCC1[C@@H](C2)N(CC1CCC1)CC3)Nc1ccc2c(c1)[C@@]13CCCCC1[C@@H](C2)N(CC1CCC1)CC3 (stereo partly specified)	7.5 nM

Input: Please respond with reported Ki (system Kappa-type opioid receptor (Homo sapiens)) for O=C(/C=C/C(=O)Nc1ccc2c(c1)[C@@]13CCCCC1[C@@H](C2)N(CC1CCC1)CC3)Nc1ccc2c(c1)[C@@]13CCCCC1[C@@H](C2)N(CC1CCC1)CC3 (stereo partly specified) .
Output: 7.3 nM

Input: Please respond with reported Ki (system Kappa-type opioid receptor (Homo sapiens)) for Oc1ccc2c(c1)[C@]13CCCCC1[C@H](C2)N(CC1CCC1)CC3 (single isomer, unassigned; (+)) .
Output: 55 nM

Input: Please respond with reported Ki (system Kappa-type opioid receptor (Homo sapiens)) for Oc1ccc2c(c1)[C@@]13CCCCC1[C@@H](C2)N(C[C@@H]1CCCO1)CC3 (stereo partly specified) .
Output: 0.15 nM

Input: Please respond with reported Ki (system Kappa-type opioid receptor (Homo sapiens)) for O=C(/C=C/C=C/C(=O)Oc1ccc2c(c1)[C@@]13CCCCC1[C@@H](C2)N(CC1CCC1)CC3)Oc1ccc2c(c1)[C@@]13CCCCC1[C@@H](C2)N(CC1CCC1)CC3 (stereo partly specified) .
Output: 0.62 nM
